// data source = paper PMC9927415

test.target: TNNI3K (Homo sapiens)
Construct: purchased DiscoverX (KINOMEscan)
Sequence (Q59H18 whole entry): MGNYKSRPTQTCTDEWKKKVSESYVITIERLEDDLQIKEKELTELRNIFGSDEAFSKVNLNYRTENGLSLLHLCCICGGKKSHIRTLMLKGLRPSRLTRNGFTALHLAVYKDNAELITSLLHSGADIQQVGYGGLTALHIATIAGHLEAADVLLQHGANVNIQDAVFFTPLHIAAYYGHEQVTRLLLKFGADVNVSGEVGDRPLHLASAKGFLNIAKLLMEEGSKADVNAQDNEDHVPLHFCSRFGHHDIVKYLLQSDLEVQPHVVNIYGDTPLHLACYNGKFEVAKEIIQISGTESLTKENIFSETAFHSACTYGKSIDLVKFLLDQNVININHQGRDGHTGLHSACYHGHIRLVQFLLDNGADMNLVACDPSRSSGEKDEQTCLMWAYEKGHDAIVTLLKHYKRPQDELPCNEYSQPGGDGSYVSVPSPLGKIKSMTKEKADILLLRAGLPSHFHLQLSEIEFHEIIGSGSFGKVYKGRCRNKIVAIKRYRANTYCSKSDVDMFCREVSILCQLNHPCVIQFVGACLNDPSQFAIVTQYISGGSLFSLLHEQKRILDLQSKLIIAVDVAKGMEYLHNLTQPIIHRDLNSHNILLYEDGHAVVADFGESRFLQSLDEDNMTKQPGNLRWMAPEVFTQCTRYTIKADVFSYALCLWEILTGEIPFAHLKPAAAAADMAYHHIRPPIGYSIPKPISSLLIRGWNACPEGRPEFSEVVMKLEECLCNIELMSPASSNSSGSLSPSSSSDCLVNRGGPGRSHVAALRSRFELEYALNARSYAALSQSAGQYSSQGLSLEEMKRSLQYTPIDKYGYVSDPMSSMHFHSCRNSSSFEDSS
experimental.details: KINOMEscan competitive binding
recorded.conditions: n=1, read-out: Percent inhibition, TNNI3K
reported.metric: inhibition at 10 µM

> print(dat)
                                   structure            test.target  result
 1  Cc1ccc(O)cc1Nc1ccnc(Nc2cccc(C(N)=O)c2)n1  TNNI3K (Homo sapiens)   99.9%
 2              Nc1ncc2c(-c3ccncc3)c[nH]c2n1  TNNI3K (Homo sapiens)      0%
 3  Fc1cccc(COc2ccc(Nc3ncnc4c3CN(CCN3CCOCC3)CC4)cc2Cl)c1  TNNI3K (Homo sapiens)      0%
 4  C[C@@H](Oc1cc(-c2cnc3ccccn23)sc1C(N)=O)c1ccccc1Cl  TNNI3K (Homo sapiens)      0%
 5   c1ccc(COc2cccc(-c3ccnc4[nH]ccc34)c2)cc1  TNNI3K (Homo sapiens)      0%
 6  CN1CCN(c2ccc(Nc3nccc(-c4cnn5ncccc45)n3)cc2C#N)CC1  TNNI3K (Homo sapiens)      0%
 7  COc1cc(Nc2nccc(-c3sc(N)nc3-c3cccc(NC(=O)c4c(F)cccc4F)c3)n2)cc(OC)c1OC  TNNI3K (Homo sapiens)    100%
 8     COc1ccc(Nc2nccc(-c3cnn4ncccc34)n2)cc1  TNNI3K (Homo sapiens)      0%
 9  Cc1ccc(O)cc1N(C)c1ccnc(Nc2cccc(S(N)(=O)=O)c2)n1  TNNI3K (Homo sapiens)    100%
10           Clc1ccc(Nc2ncc(-c3ccccc3)s2)cc1  TNNI3K (Homo sapiens)     86%

---

test.target: YANK3 (Homo sapiens)
Construct: purchased DiscoverX (KINOMEscan)
Sequence (Q86UX6 whole entry): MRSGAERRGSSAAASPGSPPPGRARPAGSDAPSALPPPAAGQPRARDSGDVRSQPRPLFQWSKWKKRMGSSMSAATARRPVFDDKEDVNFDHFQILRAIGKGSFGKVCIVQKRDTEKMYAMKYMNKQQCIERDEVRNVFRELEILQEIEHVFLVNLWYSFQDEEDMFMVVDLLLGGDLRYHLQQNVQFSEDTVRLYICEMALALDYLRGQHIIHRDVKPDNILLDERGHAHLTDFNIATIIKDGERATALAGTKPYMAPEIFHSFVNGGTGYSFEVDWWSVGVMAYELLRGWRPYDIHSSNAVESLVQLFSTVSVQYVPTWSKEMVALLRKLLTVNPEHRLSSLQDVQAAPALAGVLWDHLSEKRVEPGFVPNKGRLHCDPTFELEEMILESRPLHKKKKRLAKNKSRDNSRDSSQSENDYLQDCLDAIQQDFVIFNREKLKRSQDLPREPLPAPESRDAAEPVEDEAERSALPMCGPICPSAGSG
experimental.details: KINOMEscan competitive binding
recorded.conditions: n=1, read-out: Percent inhibition, YANK3
Documented inhibition at 10 µM across a set of compounds
reported.metric: inhibition at 10 µM

> print(dat)
                                   compound           test.target      reported.metric  result
1  COc1ccc(Nc2nccc(-c3cnn4ncccc34)n2)cc1 [Compound 2]  YANK3 (Homo sapiens)  inhibition at 10 µM      0%
2  Nc1ncc2c(-c3ccncc3)c[nH]c2n1 [Compound 11]  YANK3 (Homo sapiens)  inhibition at 10 µM      0%
3  Cc1ccc(O)cc1N(C)c1ccnc(Nc2cccc(S(N)(=O)=O)c2)n1 [Compound 4]  YANK3 (Homo sapiens)  inhibition at 10 µM   78.6%
4  Fc1cccc(COc2ccc(Nc3ncnc4c3CN(CCN3CCOCC3)CC4)cc2Cl)c1 [Compound 6]  YANK3 (Homo sapiens)  inhibition at 10 µM      0%
5  C[C@@H](Oc1cc(-c2cnc3ccccn23)sc1C(N)=O)c1ccccc1Cl [Compound 8]  YANK3 (Homo sapiens)  inhibition at 10 µM      0%

---

test.target: panel of 203 kinases (Homo sapiens, UniProt P45983)
Construct: purchased DiscoverX (KINOMEscan)
Sequence (P45983 whole entry): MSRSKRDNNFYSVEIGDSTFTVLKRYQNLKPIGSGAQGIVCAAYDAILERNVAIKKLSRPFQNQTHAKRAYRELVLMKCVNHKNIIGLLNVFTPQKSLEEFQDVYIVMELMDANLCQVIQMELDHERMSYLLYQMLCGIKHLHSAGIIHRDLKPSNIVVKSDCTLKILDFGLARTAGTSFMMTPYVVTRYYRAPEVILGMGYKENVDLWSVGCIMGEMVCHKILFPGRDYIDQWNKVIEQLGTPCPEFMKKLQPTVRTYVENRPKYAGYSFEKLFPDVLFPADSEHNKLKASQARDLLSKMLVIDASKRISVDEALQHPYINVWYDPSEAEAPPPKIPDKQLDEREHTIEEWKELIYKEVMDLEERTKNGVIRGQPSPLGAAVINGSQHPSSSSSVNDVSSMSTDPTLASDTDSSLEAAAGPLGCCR
experimental.details: KINOMEscan competitive binding, whole panel
recorded.conditions: 10 µM, n=1; kinase JNK1; read-out: Percent inhibition JNK1
reported.metric: inhibition at 10 µM (%)

> print(dat)
                                   structure  numeric.value
 1  COc1cc(Nc2nccc(-c3sc(N)nc3-c3cccc(NC(=O)c4c(F)cccc4F)c3)n2)cc(OC)c1OC            100
 2           Clc1ccc(Nc2ncc(-c3ccccc3)s2)cc1              0
 3  Cc1ccc(O)cc1Nc1ccnc(Nc2cccc(C(N)=O)c2)n1           76.7
 4     COc1ccc(Nc2nccc(-c3cnn4ncccc34)n2)cc1           98.5
 5  Cc1ccc(O)cc1N(C)c1ccnc(Nc2cccc(S(N)(=O)=O)c2)n1           87.1
 6  CN1CCN(c2ccc(Nc3nccc(-c4cnn5ncccc45)n3)cc2C#N)CC1            100
 7   c1ccc(COc2cccc(-c3ccnc4[nH]ccc34)c2)cc1              0
 8  Fc1cccc(COc2ccc(Nc3ncnc4c3CN(CCN3CCOCC3)CC4)cc2Cl)c1              0
 9              Nc1ncc2c(-c3ccncc3)c[nH]c2n1           77.1
10  C[C@@H](Oc1cc(-c2cnc3ccccn23)sc1C(N)=O)c1ccccc1Cl              0
